Listed below: IC50 values for each entry.
system.name: pERK1/2 (Thr202/Tyr204), NCI-1H441 (KRAS G12V) (Homo sapiens, UniProt P01116, G12V)
Construct: pERK1/2 HTRF read-out
Sequence (P01116 1-188 isoform P01116-2 G12V): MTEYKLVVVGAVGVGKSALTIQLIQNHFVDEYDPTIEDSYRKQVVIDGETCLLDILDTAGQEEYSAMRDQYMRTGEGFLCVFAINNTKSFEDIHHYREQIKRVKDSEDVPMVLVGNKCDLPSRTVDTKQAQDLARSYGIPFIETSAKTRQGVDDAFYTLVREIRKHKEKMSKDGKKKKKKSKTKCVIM
assay.info: Assay of intracellular pERK1/2 (Thr202/Tyr204) phosphorylation in NCI-H441 cells (KRAS G12V)
Assay type: cell-based
cond: pERK1/2, 2 days, read-out: NCI-H441 (KRAS G12V) IC50
Excerpt: Example 2: Assay of intracellular pERK1/2 (Thr202/Tyr204)phosphorylation 1. […] Fluorescence ratio=fluorescence value665 nm/fluorescence value615 nm Inhibition rate (%)=100−((fluorescence ratio of compound well−fluorescence ratio of negative control well)/(fluorescence ratio of positive control well−fluorescence ratio of negative control well))×100 […]

# annotated cases, reported IC50 shown
Cc1cc(N)cc(-c2nc3c4c(nc(OC[C@H]5CCCN5C)nc4c2F)N(C(C)c2cccnc2N)CCO3)c1C(F)(F)F (single isomer, unassigned) [Compound 110] | > 100 nM
Cc1c(F)c(N)cc(-c2nc3c4c(nc(OC[C@@]56CCCN5C[C@H](F)C6)nc4c2F)N([C@@H](C)c2cc(F)cnc2N)[C@@H](C)CO3)c1C(F)(F)F | > 100 nM

Turning to the following compound.
Prompt: pERK1/2 (Thr202/Tyr204), NCI-1H441 (KRAS G12V) (Homo sapiens, UniProt P01116, G12V) / IC50 / "Cc1c(F)c(N)cc(-c2nc3c4c(nc(OC[C@@]56CCCN5C[C@H](F)C6)nc4c2F)N(C2CC2)CCO3)c1C(F)(F)F" : value?
Completion: > 100 nM
